meta.source: PubChem BioAssay (NCI)

test: NCI Yeast Anticancer Drug Screen. Data for the mec2-1 strain (AID 157); conditions: S. cerevisiae mec2-1 strain, at 5.0 µM (retest, dose inferred, filed as 0.5)
The panel holds about 79,000 compounds, 15% with a hit somewhere; the sample as a whole holds those more often. Activity calls are given as the source filed them. No stated cut-off is given here; in the data, active means growth inhibition above about 70%; inactive means the rest.
Give your call using only these classes: active, inactive

As a guide, the following entries are already answered.
[[record]]
given_smiles = "CN(C)c1cccc(F)c1C(=O)NC(=O)Nc1ccc(Cl)cc1"
class_name = "inactive"

[[record]]
given_smiles = "CC(=O)NC1=C(Oc2ccccc2)C(=O)c2ccccc2C1=O"
class_name = "active"

[[record]]
given_smiles = "Clc1ccc2nc3c(c(N4CCOCC4)c2c1)CCCC3"
class_name = "active"


Give the logged outcome of this assay for the following compound: CCN(CC)CCOc1ccc(/C(C#N)=C/c2ccc(C(F)(F)F)cc2)cc1
inactive

Give the logged outcome of this assay for the following compound: CCCCCCCCCCCCCCCCCO
inactive

Give the logged outcome of this assay for the following compound: N#CCCN(CCCN1CCOCC1)C(=S)Nc1cccc(C(F)(F)F)c1
inactive
